test system: HBMEC cells; assay: Blood–brain barrier transport study in HBMEC Transwell monolayer; conditions: RootExt 20 µg mL^−1 apical; 4 h; n.q. = not quantified in the basolateral compartment
RESULT TYPE: RootExt Te (%) ± SD 4 h

Worked cases, answers included:
COc1ccc(O)c(C=O)c1 [2-hydroxy-5-methoxybenzaldehyde]
36.3 ± 10.9%
COc1ccc(-c2cc(=O)c3c(OC)c(OC)c(OC)c(OC)c3o2)cc1OC
n.q.
CC(C)[C@@H]1CC[C@@]2(C)[C@H](O)CC[C@](C)(O)[C@H]2[C@@H]1O[C@@H]1O[C@H](CO)[C@@H](O)[C@H](O)[C@H]1O [Ophiopogonoside A]
n.q.
CC1=C[C@H]2[C@@H](CC1=O)[C@H](C)C[C@H](O)[C@H]2C(C)C [8-hydroxyageraphorone]
n.q.
Oc1ccc(O)c(O)c1
n.q.

### Prompt RootExt Te (%) ± SD 4 h of C=C(C)[C@@H]1CC[C@@]2(C)CCC(=O)C(C)=C2C1 on HBMEC cells?
### Response 20.1 ± 12.0%

### Prompt RootExt Te (%) ± SD 4 h of O=C(O)/C=C/c1ccc(O)cc1 on HBMEC cells?
### Response n.q.

----------
assay: Parallel artificial membrane permeability assay for the blood–brain barrier (PAMPA-BBB); details: compound within RootExt donor solution; 37 °C, 4 h, PBS pH 7.4; n.q. = not quantified in the acceptor plate
Entries and their RootExt log Pe values follow.
Returns: the value as a bare number; no unit string appended.

C[C@@H]1CCC=C2CC[C@@H](C(C)(C)O)C[C@]21C [Valerianol]
−5.59

Consider the record given below.
### Prompt Looking for the measured RootExt log Pe of COc1cc2ccc(=O)oc2c(O)c1OC [Fraxidin] , can you help?
### Response −4.81

----------
system: HBMEC cells; assay: Blood–brain barrier transport study in HBMEC Transwell monolayer; conditions: RootExt 20 µg mL^−1 apical; 4 h; n.q. = not quantified in the basolateral compartment
RESULT TYPE: RootExt Te (%) ± SD 4 h

COc1cc2ccc(=O)oc2cc1O [7-hydroxy-6-methoxycoumarin]
n.q.
COc1cc2ccc(=O)oc2c(OC)c1O
n.q.
O=C(O)C=Cc1cc(O)ccc1O [2,5-dihydroxycinnamic acid]
n.q.
O=Cc1ccc(O)cc1 [4-hydroxybenzaldehyde]
57.5 ± 1.7%
O=Cc1ccc(O)c(O)c1
n.q.
COc1ccc([C@@H]2CC(=O)c3c(O)cc(O[C@@H]4O[C@H](CO[C@@H]5O[C@@H](C)[C@H](O)[C@@H](O)[C@H]5O)[C@@H](O)[C@H](O)[C@H]4O)cc3O2)cc1O
n.q.
O=C(O)c1cccc(O)c1O [2,3-dihydroxybenzoic acid]
23.9 ± 4.4%
COc1cc(/C=C/C(=O)O)ccc1O
n.q.

Consider the record given below.
### Prompt Looking for the measured RootExt Te (%) ± SD 4 h of C=C1CC[C@H]2O[C@]2(C)CC[C@@H]2[C@@H]1CC2(C)C [(–)-caryophyllene oxide] , can you help?
### Response n.q.

----------
assay: Parallel artificial membrane permeability assay for the blood–brain barrier (PAMPA-BBB); conditions: compound within RootExt donor solution; 37 °C, 4 h, PBS pH 7.4; n.q. = not quantified in the acceptor plate
Entries and their RootExt log Pe values follow.
Returns: the value as a bare number; no unit string appended.

### Prompt Looking for the measured RootExt log Pe of O=C(O)C=Cc1cc(O)ccc1O [2,5-dihydroxycinnamic acid] , can you help?
### Response −5.22

### Prompt Looking for the measured RootExt log Pe of C=C(C)C(O)CCC(C)C1CCC2(C)C3CCC4C(C)(C)C(O)CCC45CC35CCC12C (stereo not shown) , can you help?
### Response −5.79

### Prompt Looking for the measured RootExt log Pe of CC(=O)OC(C)(C)[C@@H]1CC[C@H](C)C2=C(C1)[C@@H](C)CC2 [Guaiol acetate] , can you help?
### Response −5.05
